# TARGET_OF_ASSAY: Proto-oncogene tyrosine-protein kinase receptor Ret (Homo sapiens, UniProt P07949)
# Sequence (P07949 whole entry): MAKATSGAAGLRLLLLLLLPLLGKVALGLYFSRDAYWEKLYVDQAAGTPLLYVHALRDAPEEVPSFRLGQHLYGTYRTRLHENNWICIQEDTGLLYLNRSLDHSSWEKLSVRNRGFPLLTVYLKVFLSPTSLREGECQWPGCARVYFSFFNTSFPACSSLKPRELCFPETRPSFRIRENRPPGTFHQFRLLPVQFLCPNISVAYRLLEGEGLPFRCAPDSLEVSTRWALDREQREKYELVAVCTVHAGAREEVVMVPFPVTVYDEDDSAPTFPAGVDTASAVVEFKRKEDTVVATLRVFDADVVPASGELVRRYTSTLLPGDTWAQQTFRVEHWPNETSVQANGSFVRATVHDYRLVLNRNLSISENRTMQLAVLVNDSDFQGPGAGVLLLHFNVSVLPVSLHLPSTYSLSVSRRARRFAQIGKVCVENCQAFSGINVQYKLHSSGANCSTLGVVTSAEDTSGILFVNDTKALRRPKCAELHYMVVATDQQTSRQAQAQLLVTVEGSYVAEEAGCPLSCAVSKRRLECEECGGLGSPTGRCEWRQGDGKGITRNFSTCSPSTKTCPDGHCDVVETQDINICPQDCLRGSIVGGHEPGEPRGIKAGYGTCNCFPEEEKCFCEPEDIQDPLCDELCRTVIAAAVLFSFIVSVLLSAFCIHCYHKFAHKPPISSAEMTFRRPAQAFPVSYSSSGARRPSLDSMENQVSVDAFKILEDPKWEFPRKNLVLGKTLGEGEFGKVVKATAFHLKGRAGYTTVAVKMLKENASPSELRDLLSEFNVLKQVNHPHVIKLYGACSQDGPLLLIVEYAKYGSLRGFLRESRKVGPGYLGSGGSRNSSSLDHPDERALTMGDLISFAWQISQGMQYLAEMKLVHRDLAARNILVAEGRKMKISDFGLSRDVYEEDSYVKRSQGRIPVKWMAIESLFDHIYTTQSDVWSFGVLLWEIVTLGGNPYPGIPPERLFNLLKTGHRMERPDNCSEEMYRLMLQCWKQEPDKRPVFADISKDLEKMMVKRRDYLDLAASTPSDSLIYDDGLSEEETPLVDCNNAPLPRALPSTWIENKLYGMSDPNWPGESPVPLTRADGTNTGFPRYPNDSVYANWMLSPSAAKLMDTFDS
REPORTED_ENDPOINT: IC50

STRUCTURE_SMILES | REPORTED_ENDPOINT | VALUE_MEASURED
Cc1ccc(O)cc1Nc1cc(C(F)(F)F)nc2ccc(-c3ccncc3)cc12 | IC50 | > 1000 nM
